- Test target: sortase (cleavage of sorting signals at the LPXTG motif) (Staphylococcus aureus)
- Sequence (Q2FV99 whole entry, looked up): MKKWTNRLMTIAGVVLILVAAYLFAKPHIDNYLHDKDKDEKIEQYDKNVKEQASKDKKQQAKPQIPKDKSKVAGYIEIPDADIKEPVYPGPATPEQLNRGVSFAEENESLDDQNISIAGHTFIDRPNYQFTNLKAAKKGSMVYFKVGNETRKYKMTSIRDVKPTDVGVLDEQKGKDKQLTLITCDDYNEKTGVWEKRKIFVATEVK
- Assay type: cell-based, S. aureus OS2
Measurement kind: cleavage of sorting signals at the LPXTG motif (cell wall sorting reaction)

>>> measurement("NC(=O)CI [iodoacetamide]")
"did not"
>>> measurement("O=C(O)CI [iodoacetate]")
"did not"
>>> measurement("CCN1C(=O)C=CC1=O [N-ethylmaleimide]")
"did not"
